// pIC50 lookup, one value per entry
system-under-test: p45 v-abl tyrosine kinase
procedure-text: in vitro p45 v-abl kinase assay ((Val^5)-Angiotension II phosphorylation)
condition-info: 40 ng purified abl-kinase; peptide (2 Mm) and ATP (50 μM); 30° C., pH 8.0; triplicated determinations; read-out: IC50 v-abl, inhibition of p45 v-abl kinase
Scale explanation: pIC50 corresponds to minus log10 of a concentration expressed in moles per litre.

smiles-representation	quantity-kind	observed
COc1ccc2[nH]cc(C=C3C(=O)Nc4ccc(NC(=O)CCN5CCCCC5)cc43)c2c1	pIC50	5.76

Let's switch to this compound now.
[ask] What value of pIC50 has been recorded for this entry: `CCOC(=O)c1ccc2c(c1)C(=Cc1c[nH]c3ccc(OC)cc13)C(=O)N2`
[reply] 5.70
